Tested on: Malme-3M
method_notes: NCI tumour cell line growth inhibition, 48 h
Activity calls are given as the source filed them. No stated cut-off is given here; in the data, active = GI50 up to about 1.1 µM and inactive = higher.
endpoint: GI50

Requested field: GI50. Item: "CCC1=C(C)C(=O)N/C1=C\c1[nH]c(C)c([C@H](C)CCN)c1C"
18.7 µM (inactive)

Please do the same for "C/C=C/C=C/C=C/C=C/C(=O)O" as well.
> 100 µM (inactive)

Please do the same for "[O-][Cl+3]([O-])([O-])[O-].c1ccc(-c2[o+]c(-c3ccccc3)c(-c3ccccc3)c(-c3ccccc3)c2-c2ccccc2)cc1" as well.
> 100 µM (inactive)

* * *

Test system: COLO 205
method_notes: NCI tumour cell line growth inhibition, 48 h
Active and inactive are the calls of the source. No stated cut-off is given here; in the data, active = GI50 up to about 1.1 µM and inactive = higher.
endpoint: GI50

Find GI50 (COLO 205) for the entry "C=C(C(=O)OC)[C@H]1CC/C(C)=C/CC[C@@](C)(O)C=CC[C@@]2(C)O[C@@H]2C1"
13.6 µM (inactive)

Please do the same for CCOC1CCC2C(CCC(/C=C/c3ccc(O)c4ncccc34)N2C)C1 (centres undefined) as well.
3.56 µM (inactive)

Please do the same for "CCOC(=O)c1c(N2CCN(C)CC2)[nH]c(=O)c(C(c2c(Cl)cccc2Cl)c2c(O)c(C(=O)OCC)c(N3CCN(C)CC3)[nH]c2=O)c1O" as well.
33.1 µM (inactive)

Please do the same for "Cc1sc(Cc2ccccc2)nc1-c1ccc(N)cc1" as well.
23.1 µM (inactive)

Please do the same for "CCC1(CC)C(=O)N(C(=O)c2ccc(C)cc2)N(C(=O)c2ccc(C)cc2)C1=O" as well.
> 75 µM (inactive)

Please do the same for "COc1cc(/C=C2\C(=O)N(C(=O)Cc3ccccc3)N=C2C)ccc1O" as well.
> 100 µM (inactive)

Please do the same for "COC(=O)NC1(NC(=O)OC)NC(=O)c2cc(OC)c(OC)c(OC)c2N1" as well.
18.7 µM (inactive)

Please do the same for "c1ccc([P+](CCCCCC[P+](c2ccccc2)(c2ccccc2)c2ccccc2)(c2ccccc2)c2ccccc2)cc1" as well.
2.68 µM (inactive)

Please do the same for "Cc1n[nH]c(=O)n1/N=C/c1ccco1" as well.
> 100 µM (inactive)
